Tested on: rats with amnesia
Test: Antiamnestic activity: passive avoidance response (PAR) with amnesia by maximum electric shock
Type: in vivo
Conditions: 50 mg/kg intraperitoneally; rats with electric shock amnesia; 24 hours after learning
Endpoint: Time of presence of animals while PAR reproduction (seconds) on the illuminated platform
One number for each entry, in s.

Solved entries:
O=C([O-])CC[C@H](NC(=O)c1cncc(O)c1)C(=O)[O-].[Ca+2]
79.4
O=C([O-])CC[C@H](NC(=O)c1cncc(O)c1)C(=O)[O-].[K+].[K+]
51.4
O=C(O)CC[C@H](NC(=O)c1cncc(O)c1)C(=O)O [Nooglutyl, N-(5-hydroxynicotinoyl)-L-glutamic acid, reference compound]
54.3

What value of Time of presence of animals while PAR reproduction (seconds) on the illuminated platform has been reported for the following compound? O=C([O-])CC[C@H](NC(=O)c1cncc(O)c1)C(=O)[O-].[Na+].[Na+]
52.5

Ref: patent US8030493B2
